Source listed as patent US20260115250A1.

- study_system: Low Density Lipoprotein Receptor (LDLR), recombinant (UniProt P01130 22-788)
- method_description: SPR; HBS + 0.005% P20, DMPC complex
value_type: log10(Kd) (log10 of the value in nM)

>>> quantitative_readout("T-115 (peptide) peptide: DHINKVQRKVTHEIERLFLGQSTEELRVRLASHLRKLRKRLLRDADDLQKRLAVYQA")
2.32
>>> quantitative_readout("T-113 (peptide) peptide: WKDFGERVERALREQFEDLGQSTEELRVRLASHLRKLRKRLLRDADDLQKRLAVYQA")
2.46
>>> quantitative_readout("HLRKLRKRLLRSLVSQYFQTVTDYGKDL [T-109]")
3.02
>>> quantitative_readout("HLRKLRKRLLRSLVSQYRQTVTDYGKDL [T-110]")
3.08
>>> quantitative_readout("EELRVRLASHLRKLRKRLLR [T-074]")
4.89
>>> quantitative_readout("T-116 (peptide) peptide: DAWERFRALFKELADYFRLGQSTEELRVRLASHLRKLRKRLLRDADDLQKRLAVYQA")
2.45
>>> quantitative_readout("T-112 (peptide) peptide: YKDFGERVERALGRQLEMLGQSTEELRVRLASHLRKLRKRLLRDADDLQKRLAVYQA")
2.23
>>> quantitative_readout("HLRKLVKRLLRSLVSQYRQTVTDYGEDL [T-111]")
2.66
